- Test system: RPMI-8226 leukemia
- assay-notes: NCI tumour cell line growth inhibition, 48 h

molecule | tested-target | TGI
Cc1cc(N(CCC#N)CCC#N)ccc1/C(N=Nc1ccc(C(=O)O)cc1)=N\NC(=O)c1ccccc1 | RPMI-8226 leukemia | > 100 µM
CCCCCc1cc2cc3c(c(O)c2c(=O)[nH]1)C1(CCC3)C(=O)c2c(O)ccc(O)c2C1=O | RPMI-8226 leukemia | > 100 µM
CCOC(=O)Cc1[nH]c(C(=O)c2ccccc2)cc1C(=O)c1ccccc1 | RPMI-8226 leukemia | > 10 µM
Cc1cn(C2CC(O)C(Cn3nncc3Cn3nc(Br)c(=O)[nH]c3=O)O2)c(=O)[nH]c1=O (centres undefined) | RPMI-8226 leukemia | > 100 µM
CC(=O)OC1CC2(C)C(=CC1C1SCCS1)CCC1C2CCC2(C)C(OC(C)=O)CCC12 (centres undefined) | RPMI-8226 leukemia | > 100 µM
Cc1nc(N)c(N2CCN(S(=O)(=O)N(Cc3ccccc3)Cc3ccccc3)CC2)c(=O)[nH]1 | RPMI-8226 leukemia | > 100 µM
CC1(C)CC(=O)c2c(N)n[nH]c2C1 | RPMI-8226 leukemia | > 100 µM
Nc1nc(-c2ccc3c(c2)/C(=C\c2cc(Br)c(O)c(Br)c2)C(=O)N3)cs1 | RPMI-8226 leukemia | > 25 µM
N#CC1=C(O)NC(O)=C(C#N)C1c1c(Cl)cccc1Cl | RPMI-8226 leukemia | > 100 µM

---

- Tested on: SK-MEL-5 melanoma
- assay-notes: NCI tumour cell line growth inhibition, 48 h

compound | TGI
CC1C(c2ccccc2)N(C)C(c2ccccc2)C(C)C1(O)c1ccccc1 (stereo not given) | > 100 µM
COc1ccc(/C(=N/O)c2ccccc2C2=Nc3ccccc3C(NCc3ccccc3)O2)cc1C (stereo not given) | 32.8 µM
COc1ccc(C(C2=C(O)CC(C)OC2=O)C2=C(O)CC(C)OC2=O)cc1 (stereo not given) | > 100 µM
COC(=O)NC(Cc1ccccc1)NC(=O)OC(C)(C)C (stereo not given) | > 100 µM
CN1C(=O)N(C)C2C1NC(=S)N2/N=C/C=C/c1ccccc1[N+](=O)[O-] (stereo not given) | > 100 µM

---

- Test system: SK-OV-3 ovarian
- assay-notes: NCI tumour cell line growth inhibition, 48 h
reported-metric: TGI (µM)

compound | tested-target | bound-sign | reported-result
CCOC(=O)Cc1[nH]c(C(=O)c2ccccc2)cc1C(=O)c1ccccc1 | SK-OV-3 ovarian | > | 100
C=CC(=O)N1C/C(=C\c2ccc(OC)cc2)C(=O)/C(=C/c2ccc(OC)cc2)C1 | SK-OV-3 ovarian | = | 8.39
COc1ccc2c3ccnc(C(F)(F)F)c3n(CCCCN)c2c1 | SK-OV-3 ovarian | = | 25.3
N#C/C(=C\c1ccc[nH]1)c1cc(-c2ccc(Cl)cc2)nn1-c1ccccc1 | SK-OV-3 ovarian | = | 40.2
CCN(CC)/N=C\c1c2ccccc2cc2ccccc12 | SK-OV-3 ovarian | > | 100
O=C(O)C(Cc1ccccc1)Cc1ccccc1 | SK-OV-3 ovarian | > | 100
COC(=O)N[C@@H]1C[C@H]2CC[C@]1(O[Si](C(C)C)(C(C)C)C(C)C)C(=O)C2 | SK-OV-3 ovarian | = | 46.5
O=C1C(c2ccccc2)=C(c2ccccc2)C1(Cl)Cl | SK-OV-3 ovarian | = | 29.2
COC(=O)NC(Cc1ccccc1)NC(=O)OC(C)(C)C (centres undefined) | SK-OV-3 ovarian | > | 100

---

The following compounds are shown together with reported log10(TGI) values.
- System: SF-295 CNS
- assay-notes: NCI tumour cell line growth inhibition, 48 h
reported-metric: log10(TGI) (log10 of the value in µM)

compound | tested-target | log10(TGI)
O=C(CSc1nc2ccc(I)cc2c(=O)n1Cc1ccccc1)Nc1ccccc1 | SF-295 CNS | 1.82
CCCCCCCCCCCC(=O)N(CCCCCCCCC)CC(O)C(O)C(OC1OC(CO)C(O)C(O)C1O)C(O)CO (stereo not drawn) | SF-295 CNS | 1.60
Cc1cc(OCc2ccc(C(F)(F)F)cc2)c2c(c1)C(=O)C=C(NCCN1CCCC1)C2=O | SF-295 CNS | 0.60
CC1(C)C2CC3C(C)(C2)C31c1cc(Cl)ccc1N (stereo not drawn) | SF-295 CNS | 1.46
NC1(c2cc3ccccc3s2)CCCCCC1 | SF-295 CNS | 1.51
CC(=O)OC1CC2(C)C(=CC1C1SCCS1)CCC1C2CCC2(C)C(OC(C)=O)CCC12 (stereo not drawn) | SF-295 CNS | 1.95

---

- Test system: NCI-H23 lung
- assay-notes: NCI tumour cell line growth inhibition, 48 h
Listed below: TGI values for each entry.

molecule | TGI
COc1ccc(C2N(c3ccc(C)c(N=C=O)c3)C(=O)N3C(c4ccc(OC)cc4)N(c4ccc(C)c(N=C=O)c4)C(=O)N23)cc1 (centres undefined) | > 100 µM
O=C(NC1CCC[C@H]1OC(=O)c1ccccc1)c1ccccc1 (some centres undefined) | > 100 µM
NC(=Nc1ccccc1)N/N=C/c1c[nH]c2ccccc12 | 2.93 µM
C[Si](C)(C)OC1(C#N)c2ccccc2CCCC12CCCC2 (centres undefined) | > 100 µM
COC1C(O)C(C)OC(O[C@H]2CC[C@@]3(C)C(CC[C@@H]4[C@@H]3CC[C@]3(C)[C@@H](C(C)OC5OC(CO)C(O)C(O)C5O)CC[C@]43O)C2)C1O (some centres undefined) | > 25 µM
CN(C(=O)C(C)(C)C)c1ccccc1I(=O)=O | > 100 µM
OC1OCC(COc2cc(Cl)c(Cl)cc2Cl)OC1O (centres undefined) | > 100 µM
COC(=O)N[C@@H]1C[C@H]2CC[C@]1(O[Si](C(C)C)(C(C)C)C(C)C)C(=O)C2 | 39.3 µM
O=[N+]([O-])c1ccc2c(c1)C(N1CCN(CCO)CC1)Cc1ccc(F)cc1S2 (centres undefined) | 29 µM

---

- System: SK-MEL-2 melanoma
- assay-notes: NCI tumour cell line growth inhibition, 48 h
Mark not satisfied for TGI values under 30 µM, and satisfied for everything at or above.

compound | classification
COc1ccc2c3ccnc(C(F)(F)F)c3n(CCCCN)c2c1 | satisfied
O=C(NC1CCC[C@H]1OC(=O)c1ccccc1)c1ccccc1 (some centres not stated) | satisfied
CC1(C)CCC2=C(O1)c1ccccc1C(=Nc1ccc([N+](=O)[O-])cc1)C2=O | satisfied
C[C@]12CC[C@H]3[C@@H](CC[C@]4(O)C[C@@H](O)CC[C@]34C=O)[C@@]1(O)CC[C@@H]2C1=CC(=O)OC1 | not satisfied
O=C(O)C(Cc1ccccc1)Cc1ccccc1 | satisfied
NC1(c2cc3ccccc3s2)CCCCCC1 | not satisfied
C=C1c2c(n(S(=O)(=O)c3ccccc3)c3ccccc23)[C@@]2(C(=O)OC)CC3C=CC2N1C3 | satisfied
CSc1ccc(N2C(=O)C3c4[nH]c5ccccc5c4C4CCC(C(C)(C)C)CC4C3C2=O)cc1 (configuration not stated) | satisfied
O=C1c2ccccc2C(=O)N1CC#CCO | satisfied
CC1(C)CC(=O)c2c(N)n[nH]c2C1 | satisfied
N#CCCN(CCCCN(CCC#N)C(=O)Nc1ccccc1)C(=O)Nc1ccccc1 | satisfied
N=c1ncn(C/C=C/c2ccccc2)c2nc[nH]c12 | satisfied

---

- Tested on: SF-295 CNS
- assay-notes: NCI tumour cell line growth inhibition, 48 h

compound | TGI
COc1ccc(C2N(c3ccc(C)c(N=C=O)c3)C(=O)N3C(c4ccc(OC)cc4)N(c4ccc(C)c(N=C=O)c4)C(=O)N23)cc1 (configuration not stated) | > 100 µM
COC(=O)C1=C(C)NC(=S)NC1c1ccc(N(CCCl)CCCl)cc1Cl (configuration not stated) | > 82.4 µM
COc1cc(C2c3cccc4cccc(c34)C3CCC(=O)N32)cc(OC)c1O (configuration not stated) | > 50 µM
c1ccc2c(c1)nnn2C1CCCCO1 (configuration not stated) | > 100 µM
CC(=O)C(CN1C(=O)c2ccccc2C1=O)C(C)=O | > 100 µM
O=C(CC(=O)N1N=C(c2ccccc2)C(N=Nc2ccc(S(=O)(=O)CCOS(=O)(=O)O)cc2)C1=O)Nc1ccc(Cl)cc1 (configuration not stated) | > 100 µM
CC1(C)CCCCCC(O)C(O)CCC(C)(C)C1=O (configuration not stated) | > 100 µM

Numbers sourced from PubChem BioAssay (NCI).
